Source: ChEMBL document CHEMBL1201862

- System: DLD-1
- experiment summary: NCI tumour cell line growth inhibition, 48 h
The source made the active and inactive calls. Rule as the data show it: active = GI50 up to about 1.1 µM and inactive = higher.
recorded metric: GI50

COc1ccc(CCN(C)C2CCC(C#N)(c3ccc(OC)c(OC)c3)CC2)cc1OC (stereo unspecified) | > 100 µM (inactive)
COc1ccc(CN(O)C2C(CO)OC(n3cc(I)c(=O)[nH]c3=O)C2O)cc1 (stereo unspecified) | > 100 µM (inactive)
S=C(N/N=C/c1ccccc1)NC1CC(c2ccccc2)Oc2ccccc21 (stereo unspecified) | 91.8 µM (inactive)
C[C@]12CC=CC(=O)[C@@]1(C)CCC(=O)C2 | > 100 µM (inactive)
O=C1C2Cc3ccccc3CN2C(=O)N1CCN1CCCC1 (stereo unspecified) | > 100 µM (inactive)

Next item in the queue.
Request: // GI50 lookup, key: CCCCC(C(=O)C(=O)Nc1ccc(C)cc1C)C(=O)C(C)C (stereo unspecified)
Response: > 100 µM (inactive)

----------
We begin with a simple list: items and their reported GI50.
- System: SF-539
- experiment summary: NCI tumour cell line growth inhibition, 48 h
The source made the active and inactive calls. Rule as the data show it: active = GI50 up to about 1.1 µM and inactive = higher.

O=c1oc2ccccc2c(-c2ccc(O)cc2)c1Oc1ccc(Cl)cc1 | 30.4 µM (inactive)
CC(Oc1ccc(Oc2cnc3ccc(Cl)cc3n2)cc1)C(=O)O (stereo not given) | > 100 µM (inactive)
COc1ccc(OC)c(/C=C/C(=O)C(C)(C)C)c1 | 19.8 µM (inactive)
Brc1ccc(-c2nnc(-c3nn(-c4ccccc4)c4nc5ccccc5nc34)o2)cc1 | > 100 µM (inactive)

Okay, now this compound:
Request: API: value(readout=GI50, system=SF-539) for record CNC(=O)CCC(NC(C)=O)C(=O)NC(Cc1ccc(NC(=O)CCCCC(C)=O)cc1)C(=O)NC(CCC(=O)NC)C(=O)NC (stereo not given)
Response: > 100 µM (inactive)

----------
- Test system: SNB-75
- experiment summary: NCI tumour cell line growth inhibition, 48 h
Active and inactive are the calls of the source. No stated cut-off is given here; in the data, active = GI50 up to about 1.1 µM and inactive = higher.
GI50 listing for selected compounds.

O=C1c2ccccc2-c2ccc(/N=[N+](/[O-])c3ccc4c(c3)C(=O)c3ccccc3-4)cc21 | > 100 µM (inactive)
CCOP(=O)(OCC)C(C)(C)OC(=O)NC(F)(F)F | > 100 µM (inactive)
O=c1nc2n(CCO)c(-c3ccccc3)c(-c3ccccc3)nc-2c(=O)[nH]1 | > 100 µM (inactive)

Request: Can you share its GI50? I mean this compound: COC(=O)[C@]12CSC[C@H]1C[C@H](c1cccc3ccccc13)N2
Response: > 100 µM (inactive)

Request: Tell me the measured GI50 of O=[N+]([O-])c1cc(Cl)ccc1S(=O)(=O)c1ccc(Cl)cc1[N+](=O)[O-] , please.
Response: 15.7 µM (inactive)

Request: Given the compound Cc1cn(C2CC(O)C(CO)O2)c(=O)[nH]c1=O (stereo unspecified) , what is its reported GI50?
Response: 3630 µM (inactive)

----------
- Test system: OVCAR-5
- experiment summary: NCI tumour cell line growth inhibition, 48 h
Calls of active or inactive are those of the source. No stated cut-off is given here; in the data, active = GI50 up to about 1.1 µM and inactive = higher.
recorded metric: GI50

Consider the following illustrative entries.
N#CC1(C#N)C(c2ccccc2)C=CC(c2ccc([N+](=O)[O-])cc2)C1(C#N)C#N (stereo not given) | 17.1 µM (inactive)
COc1cc(C=C2C(=O)NC(=S)NC2=O)cc(OC)c1OC | > 100 µM (inactive)
CCCCCCCCCCCCCCCc1ccc(OCC(O)CO)cc1 (stereo not given) | > 100 µM (inactive)
N/N=C(/C(=O)Nc1cccc(Cl)c1)C(C(=O)c1ccc(O)cc1O)C1OC(=O)c2ccccc21 (stereo not given) | > 100 µM (inactive)
Clc1ccc2c(c1)C1C(CO2)C(c2ccccc2)=NN1c1ccccc1 (stereo not given) | > 100 µM (inactive)
O=C1CCN2CCC(=O)c3c2c(cc2ccccc32)N1 | > 100 µM (inactive)
COc1ccc(Nc2c(C#N)c3n(c4ccccc24)c2ccccc2[n+]3C)cc1OC | 2.25 µM (inactive)
CSC1=N/C(=C\c2ccccc2)C(=O)N1CN1CCOCC1 | > 100 µM (inactive)
CCOC(=O)/C(O)=C(/C(=O)OC)c1ccc(Cl)cc1 | > 100 µM (inactive)

Request: Entry N#Cc1c(NC(=S)NCc2ccccc2)sc2c1CCN(N1CCc3c(sc(NC(=S)NCc4ccccc4)c3C#N)C1)C2 has what GI50?
Response: > 100 µM (inactive)
